# Subject of test: T1, recombinant human LAG-3-his protein (Novoprotein) (human, UniProt P18627 23-450)
# T1 construct: Bought; also called huLAG-3; not shown: His tag
# T1 sequence (looked up): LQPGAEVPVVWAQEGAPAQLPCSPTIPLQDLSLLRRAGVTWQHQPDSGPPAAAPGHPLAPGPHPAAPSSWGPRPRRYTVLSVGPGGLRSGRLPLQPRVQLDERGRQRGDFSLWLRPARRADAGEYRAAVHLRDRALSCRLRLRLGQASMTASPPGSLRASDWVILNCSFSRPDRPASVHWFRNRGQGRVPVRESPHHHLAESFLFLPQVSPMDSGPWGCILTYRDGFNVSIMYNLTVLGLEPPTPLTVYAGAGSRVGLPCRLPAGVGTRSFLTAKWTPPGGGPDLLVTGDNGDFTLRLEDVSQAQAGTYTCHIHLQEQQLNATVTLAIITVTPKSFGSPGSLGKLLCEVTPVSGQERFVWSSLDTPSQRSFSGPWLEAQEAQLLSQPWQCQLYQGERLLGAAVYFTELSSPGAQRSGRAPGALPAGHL
# Assay name: BLI Octet, Ab on AHC sensor, huLAG-3-his; test group 2
Assay metric: off-rate ratio to that of mAb747c (%)
# unit: % | format: bare number

Illustrative cases are given below, each with its answer.
The binder identified as D1-70-IgG (antibody, V domains shown, human IgG1/kappa constant domains) VH: EVQLVQSGAEVKKPGASVKVSCKASGFNIKDDYMHWVRQAPGQGLEWIGWIVPRNGNTMYASKFQGRVTITADTSINTAYMELSRLRSDDTAVYYCTVYGDYWGQGTTVTVSS VL: DIQMTQSPSSLSASVGDRVTINCRASQEISGYLSWLQQKPEGTIKRLIYAASTLDLGVPSRFSGSRSGSDYTLTISSLQPEDFATYYCLQYASYPLTFGGGTKVEIK registered its off-rate ratio to that of mAb747c at 160

response.value for HumAb747-42 (antibody, human IgG1, V domains shown, humanized mAb747; human IgG1 and human kappa constant domains) VH: EVQLVQSGAEVKKPGASVKVSCKASDFNIKDDYMHWVRQAPGQGLEWIGWIVPENGNTEYASKFQGKATITADTSINTAYMELSRLRSDDTAVYYCTVYGDYWGQGTTVTVSS VL: DIQMTQSPSSLSASVGDRVTINCRASQEISGYLSWLQQKPEGTIKRLIYAASTLDSGVPSRFSGSRSGSDYTLTISSLQPEDFATYYCLQYASYPLTFGGGTKVEIK (field: off-rate ratio to that of mAb747c) = 263

Others:
Lookup result for mAb747c (antibody, V domains shown, also called mAb717c) VH: EVQLQQSGAELVRPGASVKLSCTASDFNIKDDYMHWVKQRPEQGLDWIGWIVPENGNTEYASKFQGKATITADTSSNTAYLQLSSLTSEDTAVYYCTVYGDYWGQGTTLTVSS VL: DIQMTQSPSSLSASLGERVSLNCRASQEISGYLSWLQQKPDGTIKRLIYAASTLDSGVPKRFSGSRSGSDYSLTISSLESEDFAAYYCLQYASYPLTFGAGTKLELK ; measured off-rate ratio to that of mAb747c: 100

Record summary for HumAb747-39 (antibody, human IgG1, V domains shown, humanized mAb747; human IgG1 and human kappa constant domains) VH: EVQLVQSGAEVKKPGASVKVSCKASDFNIKDDYMHWVRQAPGQGLEWIGWIVPENGNTEYASKFQGRVTITADTSINTAYMELSRLRSDDTAVYYCTVYGDYWGQGTTVTVSS VL: DIQMTQSPSSLSASVGDRVTINCRASQEISGYLSWLQQKPEGTIKRLIYAASTLDSGVPSRFSGSRSGSDYTLTISSLQPEDFATYYCLQYASYPLTFGGGTKVEIK : reported off-rate ratio to that of mAb747c = 240
